The following proteins are shown together with reported Enzyme Activity Endpoint Assay (purified): IgG values.
# measured.on: pooled human IgG (human IgG1, 2, 3 and 4)
measurement.type: Enzyme Activity Endpoint Assay (purified): IgG (ng/µL)

protein	measured.value
PRT-421 (protein) MTITSVWTKGVTPPTPEDFRYNNEDVLHAPYVANQGWYDITKTFDGKDNLLCGAATAGNMLHWWFDQNKEEIERYLKKHPEKQKIIFNNQELFDVKAAIDTKDSQTNSKLFDYFRDKAFPNLSARQLGVMPDLVLDMFINGYYLNLGKTQSTDVNRPYQDKDKRGGIFDAVFTRGDQTTLLTARHDLKNKGLNEISDLIKQELTEGKALALSHTYANVRINHVINLWGADFDAEGNLIAIYVTDSDANASIGMKKYFVGVNANGKVAISAKKIEGDNIGAQVLGLFTLSTGQDIWQKLS	71
PRT-422 (protein) MTITSVWTKGVTPPTPEDFRYNNEDVLHAPYVANQGWYDITKTFDGKDNLLCGAATAGNMLHWWFDQNKEEIERYLKKHPEKQKIIFNNQELFDVKAAIDTKDSQTNSKLFNYFRDKAFPNLSARQLGVMPDLVLDMFINGYYLNLGKTQSTDVNRPYQDKDKRGGIFDAVFTRGDQTTLLTARHDLKNKGLNEISDLIKQELTEGKALALSHTYANVRINHVINLWGADFDAEGNLIAIYVTDSDANPSIGMKKYFVGVNANGKVAISAKKIEGDNIGAQVLGLFTLSTGQDIWQKLS	69
PRT-568 (protein) MANQEIRYSEATPSHITSVWTKGVTPPTQFIQNEDVLHAPYIANQGWYDITKTFNGKDDLLCGAATAGNMLHWWFDQNKTQIENYLKKHPEKQKINFNGEQMFDVKEAIDTKDSQTDSALFSYFKDKAFPYLSTKHLGVFPDHVIDMFINGYRLSLTNHGPTPVKRQTKDPRGGIFDAVFTRGDQSKLLTARHDFKEKTLNEISQLIKQELTEGKALGLSHTYANVRINHVINLWGADFNAEGNLEAIYVTDSDSNASIGMKKYYVGVNAAGHVAISAKEIEGDNIGAQVLGLFTLSTGQDIWQQTNLEHHHHHH	0
PRT-650 (protein) MQITSVWTKGVTPLTPEQFRYNNEDVIHAPYLAHQGWYDITKAFDGKDNLLCGAATAGNMLHWWFDQNKTEIEAYLSKHPEKQKIIFNNQKLFDLKAAIDTKDSQTNSQLFNYFRDKAFPNLSARQLGVMPDLVLDMFINGYYLNVTKTQSTDVNRPYQTKDPRGGIFDAVFTRGDQTTLLTARHDLKNKGLNDISTIIKQELTEGRALALSHTYANVSISHVINLWGADFNAEGNLEAIYVTDSDANASIGMKKYFVGINAHGHVAISAKKIEGENIGAQVLGLFTLSSGKDIWQKLSLEHHHHHH	130
PRT-381 (protein) MVTSVWTKGVTPPTNFTYGEDVLHAPYVANQGWYDITKTFNGKDDLLCGAATAGNMLHWWFDQNKEQIENYLKKHPEKQKINFNGEQMFDVKEAIDTKDSQLDSKLFEYFKEKAFPYLSTKHLGVFPDHVIDMFINGYRLSLTNHGPTPVKRGSKDPRGGIFDAVFTRGDQSKLLTNRHDFKEKTLKEISDLIKQELTEGKALGISHTYANVRINHVINLWGADFDAEGNLEAIYVTDSDSNPSIGMKKYFVGVNSNGKVAISAKEIEEDNIGAQVLGLFTLSTGQDIWNQTN	0
PRT-602 (protein) MANQEIRYSEVTPYHITSVWTKGVTPPANFTQGEDVFHAPYVANQGWYDITKTFNGKDDLLCGAATAGNMLHWWFDQNKDQIERYLEEHPEKQKINFNGEQMFDVKEAIDTKDSQTDSKLFEYFKEKAFPYLSTKHLGVFPDHVIDMFINGYRLSLTNHGPTPVKEGSKDPRGGIFDAVFTRGDQSKLLTSRHDFKEKTLKEISDLIKQELTEGKALGLSHTYANVRINHVINLWGADFDSEGNLKAIYVTDSDSNASIGMKKYYVGVNSAGKVAISAKEIEEDNIGAQVLGLFTLSTGQDIWNQTNLEHHHHHH	0
PRT-457 (protein) MVTSVWTKGVTPPTDFIKGEDVFHAPYKAGQGWYDITKAFDGGDDLLCGAATAGNMLHWWFDQNKDQIEAYLKEHPEKQKINFNGEQMFDVKEAIDTKDDQTNSELFNYFKEKAFPYLSTKHLGVFPDHVLDMFINGYRLSLTNHGPTPVKRQEKDPRGGIFDAVFGRGDQTKLLTSRHDLKNKTLKEISDLIKQELTEGKALALSHTYANVRINHVINLWGADFDSNGNLEAIYVTDSDSNASIGMKKYFVGVNSAGKVAISAKEIEDDNIGAQVLGLFTLSTGQKIWNKTNLEHHHHHH	138
PRT-577 (protein) MANQEIRYSKATPSTITSVWTKGVTPPENFIYNEDVLHAPYLANQGWYDITKTFNGKDDLLCGAATAGNMLHWWFDQNKEQIERYLKEHPEKQKINFNGEQMFDVKEAIDTKDSQTNSKLFEYFKDKAFPYLSTKHLGVFPDHVIDMFINGYRLSLTNHGPTPVKEQTKDPRGGIFDAVFTRGDQSKLLTSRHDFKEKTLNEISQLIKQELTEGKALGLSHTYANVRINHVINLWGADFNAEGNLEAIYVTDSDSNASIGMKKYYVGVNSAGKVAISAKEIEGDNIGAQVLGLFTLSTGQDIWQQTNLEHHHHHH	0
